assay-text: small-molecule binders of probe aInhba, primary screen, biochemical, small-molecule microarray, 635/667 nm fluorescence (AID 1148);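 also: score merges 667nm spot fluorescence with signal-to-noise for antibody binding to printed compounds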
test-conditions: higher = more signal

{"compound": "C[C@@H](OCc1ccccc1)C1NC(=O)[C@@]23C(=O)N[C@@H](Cc4ccccc4)C2[C@H](C)[C@@]2(C)O[C@H]2C3/C=C/C/C=C\\CNC(=O)[C@H](Cc2ccccc2)NC1=O (stereo partly drawn)", "composite z-score": 0.0131}
{"compound": "O=C(NCC(F)(F)F)[C@@H]1c2ccccc2C(=O)N(CC23CC4CC(CC(C4)C2)C3)[C@H]1c1ccc(CO)cc1", "composite z-score": 0.038}
{"compound": "C[C@]1(C(=O)NCC(F)(F)F)c2ccccc2C(=O)N(Cc2ccc(OC(F)(F)F)cc2)[C@H]1c1ccc(CO)cc1", "composite z-score": -0.128}

These data points were gathered from PubChem BioAssay.
